- Test system: A549
- assay: NCI tumour cell line growth inhibition, 48 h
Active and inactive are the calls of the source. No stated cut-off is given here; in the data, active = GI50 up to about 1.1 µM and inactive = higher.
Attribute: GI50

Known results for compounds:
Q: For the compound C[C@H]1C=C2C(=O)O[C@H]3CC[C@@H](C1)[C@@]23O , give its measured GI50 value.
Ans: 11.2 µM (inactive)

Q: Consider the compound CC(C)[Si](OC12CCC(CC1O)CC2CO)(C(C)C)C(C)C (stereo unspecified) and give its recorded GI50.
Ans: 10.4 µM (inactive)

Q: Give the reported GI50 for this compound. O=C(NNC(c1ccccc1)C(F)(F)F)c1ccncc1 (stereo unspecified)
Ans: > 100 µM (inactive)

Q: Look up and report measured GI50 for this entry: CC(C)OC(=O)NNc1cccc(Cl)c1
Ans: > 100 µM (inactive)

Q: Return GI50 for the following compound: CC(C)(C)OC(=O)CN1CCNCCNCC1
Ans: > 100 µM (inactive)

Q: # return recorded GI50 for entry CN(Cc1ccccc1)C(=O)c1ccccc1C(=O)O
Ans: > 100 µM (inactive)

Q: Return the recorded GI50 value; entry: CN(C)CCOc1ccc(-c2c(Oc3ccccc3)c(=O)oc3ccccc23)cc1
Ans: 4.15 µM (inactive)

Q: # return recorded GI50 for entry Cc1c(CCN=P(c2ccccc2)(c2ccccc2)c2ccccc2)c(=O)n2c([nH]c3ccccc32)c1C#N
Ans: > 10 µM (inactive)

***
Q: Output measured GI50 for this item: CCN(CC)C(c1ccc(N(C)C)cc1)C(c1ccc(N(C)C)cc1)N(CC)CC (stereo unspecified)
Ans: > 72.9 µM (inactive)

Q: Entry Cc1cccc(/N=N/c2ccc(/N=N/c3c(O)ccc4ccccc34)cc2C)c1 needs its GI50 filled in; supply it.
Ans: 80 µM (inactive)

Q: Output GI50 of CC(=O)Nc1ccc(Nc2cc(O)nc(O)n2)cc1
Ans: > 100 µM (inactive)
